Measured values drawn from patent US20250346613A1 for this set.

# Assay Comment: Blood concentration measurement of orally-administrated mice
# Format: in vivo, C57BL/6JNifdc mice
# Experimental Conditions: C57BL/6JNifdc, mouse, plasma, oral, 30 mg/kg, 0.5 h, read-out: Average blood compound concentration (μM) 0.5 h
Property Measured: concentration at 0.5 h (µM)
Your answer is read as µM, so omit the unit and give the number.

As a guide, the following entries are already answered.
| Molecule | Display Unit | concentration at 0.5 h |
| --- | --- | --- |
| CC(C)C[C@H](NC(=O)[C@H](Cc1ccccc1)NC(=O)c1cnccn1)B(O)O [Bortezomib, bortezomib, reference compound] | µM | 2 |
| Cc1ccc(C[C@H](NC(=O)C(C)C(=O)NCc2ccc(Cl)cc2Cl)B(O)O)cc1 (stereo partly drawn) | µM | 23 |

Here is the next item to consider.
Prompt: Please supply the value of reported concentration at 0.5 h for the item COc1cccc(CCNC(=O)C(C)C(=O)N[C@@H](Cc2coc3ccccc23)B(O)O)c1 (stereo partly drawn)
Response: 23
